Settings: bacteroides fragilis, 12 h, 2 µM
Description: The drug is tested on Bacteroides fragilis strain: DS-208 for biotransformation. The drug concentrations were measured before and after a 12-h incubation by liquid-chromatography-coupled mass spectrometry (LC–MS)
experimental_readout: Bacterial Biotransformation

1) CC(C)NCC(O)c1ccc(NS(C)(=O)=O)cc1 (stereo not drawn) [SOTALOL]	Compound metabolized
2) CCN(CC)CC#CCOC(=O)C(O)(c1ccccc1)C1CCCCC1.Cl (stereo not drawn) [OXYBUTYNIN CHLORIDE]	Compound NOT metabolized
3) Cc1ccc(S(=O)(=O)NC(=O)NN2CCCCCC2)cc1 [TOLAZAMIDE]	Compound metabolized
4) CC(C)c1nc(CN(C)C(=O)N[C@H](C(=O)N[C@@H](Cc2ccccc2)C[C@H](O)[C@H](Cc2ccccc2)NC(=O)OCc2cncs2)C(C)C)cs1 [RITONAVIR]	Compound metabolized
5) CC(C)(C)NC[C@H](O)COc1nsnc1N1CCOCC1.O=C(O)/C=C\C(=O)O [TIMOLOL MALEATE]	Compound NOT metabolized

Give me Bacterial Biotransformation for each of these compounds, listed below.
1. O=P1(N(CCCl)CCCl)NCCCO1 (stereo not drawn) [CYCLOPHOSPHAMIDE ANHYDROUS]
2. Br.COc1ccc2c(c1)[C@]13CCCC[C@@H]1[C@H](C2)N(C)CC3.O [DEXTROMETHORPHAN HYDROBROMIDE]
3. Cc1nc2n(c(=O)c1CCN1CCC(c3noc4cc(F)ccc34)CC1)CCCC2O (stereo not drawn) [PALIPERIDONE]

Response given:
Compound NOT metabolized
Compound NOT metabolized
Compound metabolized

###

Assay: The drug is tested on Odoribacter splanchnicus strain: fecal isolate for biotransformation. The drug concentrations were measured before and after a 12-h incubation by liquid-chromatography-coupled mass spectrometry (LC–MS)
Conditions: 2 µM
experimental_readout: Bacterial Biotransformation

Below: 5 compounds and their reported Bacterial Biotransformation.
1. CC(C)(C)N.CCC[C@H](N[C@@H](C)C(=O)N1[C@H](C(=O)O)C[C@@H]2CCCC[C@@H]21)C(=O)OCC [PERINDOPRIL ERBUMINE]	Compound NOT metabolized
2. CN1CCN(C(=O)O[C@H]2c3nccnc3C(=O)N2c2ccc(Cl)cn2)CC1 [ESZOPICLONE]	Compound metabolized
3. CC1=C(CC(=O)O)c2cc(F)ccc2/C1=C\c1ccc([S+](C)[O-])cc1 (configuration not stated)	Compound NOT metabolized
4. COc1ccc2[nH]c([S+]([O-])Cc3ncc(C)c(OC)c3C)nc2c1 (configuration not stated) [OMEPRAZOLE]	Compound metabolized
5. CC(C)N(CCC(C(N)=O)(c1ccccc1)c1ccccn1)C(C)C.O=P(O)(O)O (configuration not stated) [DISOPYRAMIDE PHOSPHATE]	Compound NOT metabolized

Give me Bacterial Biotransformation for each of these compounds, listed below.
1. Cc1nc(-c2ccc(OCC(C)C)c(C#N)c2)sc1C(=O)O [FEBUXOSTAT]
2. C[C@]12CCC(=O)C=C1[C@@H]1C[C@@H]1[C@H]1[C@@H]3[C@@H]4C[C@@H]4[C@@]4(CCC(=O)O4)[C@@]3(C)CC[C@@H]12 [DROSPIRENONE]

Response given:
1: Compound metabolized; 2: Compound metabolized

###

Assay: The drug is tested on Clostridium scindens strain: ATCC35704 for biotransformation. The drug concentrations were measured before and after a 12-h incubation by liquid-chromatography-coupled mass spectrometry (LC–MS)
Details: 2 µM
experimental_readout: Bacterial Biotransformation

Below: 5 compounds and their reported Bacterial Biotransformation.
1) COc1ccc(C(CN(C)C)C2(O)CCCCC2)cc1 (configuration not stated)	Compound NOT metabolized
2) CC(=O)CC(c1ccccc1)c1c(O)c2ccccc2oc1=O (configuration not stated)	Compound NOT metabolized
3) CCCCCNC(=N)N/N=C/c1c[nH]c2ccc(OC)cc12.O=C(O)/C=C\C(=O)O [TEGASEROD MALEATE]	Compound NOT metabolized
4) CCOc1ccccc1OCCN[C@H](C)Cc1ccc(OC)c(S(N)(=O)=O)c1.Cl [TAMSULOSIN HYDROCHLORIDE]	Compound NOT metabolized
5) Nc1ccc(/N=N/c2ccccc2)c(N)n1	Compound metabolized

Give me Bacterial Biotransformation for each of these compounds, listed below.
1. CSc1ccc2c(c1)C(N1CCN(C)CC1)Cc1ccccc1S2.O=C(O)/C=C\C(=O)O (configuration not stated)
2. CC(C)c1nc(N(C)S(C)(=O)=O)nc(-c2ccc(F)cc2)c1/C=C/[C@@H](O)C[C@@H](O)CC(=O)[O-].CC(C)c1nc(N(C)S(C)(=O)=O)nc(-c2ccc(F)cc2)c1/C=C/[C@@H](O)C[C@@H](O)CC(=O)[O-].[Ca+2]

Response given:
["Compound metabolized", "Compound NOT metabolized"]

###

Settings: anaerostipes sp., 12 h, 2 µM
Description: The drug is tested on Anaerostipes sp. strain: fecal isolate for biotransformation. The drug concentrations were measured before and after a 12-h incubation by liquid-chromatography-coupled mass spectrometry (LC–MS)
experimental_readout: Bacterial Biotransformation

1. CC[C@@]1(O)C(=O)OCc2c1cc1n(c2=O)Cc2cc3c(CN(C)C)c(O)ccc3nc2-1 [TOPOTECAN]	Compound NOT metabolized
2. CC(=O)O[C@]1(C(C)=O)CC[C@H]2[C@@H]3C=C(C)C4=CC(=O)CC[C@]4(C)[C@H]3CC[C@@]21C [MEGESTROL ACETATE]	Compound NOT metabolized
3. CN1C[C@H](C(=O)N[C@]2(C)O[C@@]3(O)[C@@H]4CCCN4C(=O)[C@H](Cc4ccccc4)N3C2=O)C=C2c3cccc4[nH]cc(c34)C[C@H]21.CN1C[C@H](C(=O)N[C@]2(C)O[C@@]3(O)[C@@H]4CCCN4C(=O)[C@H](Cc4ccccc4)N3C2=O)C=C2c3cccc4[nH]cc(c34)C[C@H]21.O=C(O)C(O)C(O)C(=O)O [ERGOTAMINE TARTRATE]	Compound metabolized
4. N#Cc1ccc2c(c1)N(CCCN1CCC(O)CC1)c1ccccc1S2 [PERICIAZINE]	Compound NOT metabolized
5. CN(C)CCOC(c1ccc(Cl)cc1)c1ccccn1.O=C(O)/C=C\C(=O)O (stereo not given) [CARBINOXAMINE MALEATE]	Compound NOT metabolized

Give me Bacterial Biotransformation for each of these molecules, listed below.
1. C[C@@H](CO)NC(=O)[C@@H]1C=C2c3cccc4[nH]cc(c34)C[C@H]2N(C)C1.O=C(O)/C=C\C(=O)O [ERGONOVINE MALEATE]
2. Nc1nc2ccc(OC(F)(F)F)cc2s1 [RILUZOLE]
3. CCN(CC)CCCC(C)Nc1c2ccc(Cl)cc2nc2ccc(OC)cc12 (stereo not given) [QUINACRINE]

Response given:
1. Compound NOT metabolized
2. Compound NOT metabolized
3. Compound NOT metabolized

Give me Bacterial Biotransformation for each of these molecules, listed below.
1. C=CC[C@@H]1/C=C(\C)C[C@H](C)C[C@H](OC)[C@H]2O[C@@](O)(C(=O)C(=O)N3CCCC[C@H]3C(=O)O[C@H](/C(C)=C/[C@@H]3CC[C@@H](O)[C@H](OC)C3)[C@H](C)[C@@H](O)CC1=O)[C@H](C)C[C@@H]2OC.O [TACROLIMUS]
2. Br.COc1ccc2c(c1)[C@]13CCCC[C@@H]1[C@H](C2)N(C)CC3.O [DEXTROMETHORPHAN HYDROBROMIDE]

Response given:
["Compound metabolized", "Compound NOT metabolized"]

Give me Bacterial Biotransformation for each of these molecules, listed below.
1. CC(Oc1c(Cl)cccc1Cl)C1=NCCN1 (stereo not given) [LOFEXIDINE]
2. CCN(CC)C(=O)C1(c2ccccc2)CC1CN (stereo not given)
3. CC1=C(CC(=O)O)c2cc(F)ccc2/C1=C\c1ccc([S+](C)[O-])cc1 (stereo not given)
4. COc1ccc(/C=C/C(=O)Nc2ccccc2C(=O)O)cc1OC
5. CN1C(C(=O)Nc2ccccn2)=C(O)c2sccc2S1(=O)=O [TENOXICAM]

Response given:
1. Compound metabolized
2. Compound NOT metabolized
3. Compound NOT metabolized
4. Compound NOT metabolized
5. Compound NOT metabolized

###

Molecular target: Xylanase (Bacteroides thetaiotaomicron)
Sequence (Q8A8H5 whole entry): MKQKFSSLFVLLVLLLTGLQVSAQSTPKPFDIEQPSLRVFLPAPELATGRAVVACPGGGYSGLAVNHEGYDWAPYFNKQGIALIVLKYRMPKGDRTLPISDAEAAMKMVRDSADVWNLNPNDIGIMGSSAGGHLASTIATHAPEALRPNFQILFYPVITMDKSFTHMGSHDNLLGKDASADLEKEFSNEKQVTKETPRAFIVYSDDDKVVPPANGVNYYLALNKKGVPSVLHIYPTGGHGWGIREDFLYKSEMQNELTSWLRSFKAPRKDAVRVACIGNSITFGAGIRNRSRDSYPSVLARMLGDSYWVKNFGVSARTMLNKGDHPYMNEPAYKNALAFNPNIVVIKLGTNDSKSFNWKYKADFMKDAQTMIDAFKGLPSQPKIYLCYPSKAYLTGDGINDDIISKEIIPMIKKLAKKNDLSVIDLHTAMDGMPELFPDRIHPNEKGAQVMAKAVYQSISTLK
Experiment: The drug is tested on Bacteroides thetaiotaomicron strain: VPI-5482 for biotransformation. The drug concentrations were measured before and after a 12-h incubation by liquid-chromatography-coupled mass spectrometry (LC–MS)
Type: ADME
Set-up: dose 2 uM
Settings: 2 µM
experimental_readout: Bacterial Biotransformation

Below: 5 compounds and their reported Bacterial Biotransformation.
1. CC(=O)OCC(=O)NCCCOc1cccc(CN2CCCCC2)c1 [ROXATIDINE ACETATE]	Compound metabolized
2. Nc1ccc(/N=N/c2ccccc2)c(N)n1 [PHENAZOPYRIDINE]	Compound NOT metabolized
3. C#C[C@]1(O)CC[C@H]2[C@@H]3CCC4=Cc5oncc5C[C@]4(C)[C@H]3CC[C@@]21C [DANAZOL]	Compound NOT metabolized
4. CCN(CC)C(=O)/C(C#N)=C/c1cc(O)c(O)c([N+](=O)[O-])c1 [ENTACAPONE]	Compound NOT metabolized
5. COc1ccnc(C[S+]([O-])c2nc3ccc(OC(F)F)cc3[nH]2)c1OC (centres undefined) [PANTOPRAZOLE]	Compound NOT metabolized

Give me Bacterial Biotransformation for each of these compounds, listed below.
1. CCS(=O)(=O)CCn1c([N+](=O)[O-])cnc1C [TINIDAZOLE]
2. CC(=O)Nc1ccc(OC(C)=O)cc1 [DIACETAMATE]
3. C#C[C@]1(OC(C)=O)CC[C@H]2[C@@H]3CCC4=CC(=O)CC[C@@H]4[C@H]3CC[C@@]21C [NORETHINDRONE ACETATE]

Response given:
Compound NOT metabolized
Compound metabolized
Compound NOT metabolized

Challenge: Write down Bacterial Biotransformation measured for item N#Cc1ccc2c(c1)N(CCCN1CCC(O)CC1)c1ccccc1S2 [PERICIAZINE]
Response given: Compound NOT metabolized

The measurements presented in this section are drawn from ChEMBL document CHEMBL5303573.
